The origin of these recorded values is PubChem BioAssay (NCI).

# growth per record follows
System: RXF 393 renal
Test Description: NCI-60 one-dose screen, 48 h (100 = growth as untreated, 0 = no growth, -100 = all killed)
Protocol Conditions: 10 µM unless noted
About 83,000 compounds went through this panel and 20% of them were active in at least one assay; those are over-represented in the sample as a whole.
Property: growth (%)

structure=O=C(Nc1c2ccccc2nc2ccccc12)c1ccccc1CN1C(=O)c2ccccc2C1=O system_name="RXF 393 renal" property=growth value=43.9
structure=O=C(Nc1ccc(Cl)cc1F)c1cc(Cl)ccc1O system_name="RXF 393 renal" property=growth value=-12.7
structure=O=C1/C(=C/c2ccc(F)cc2)Sc2c(Br)cccc21 system_name="RXF 393 renal" property=growth value=85.8
structure=O=c1c2cc(F)ccc2sc2c(N3CCCCC3)nc3ccccc3c12 system_name="RXF 393 renal" property=growth value=104
structure=CCc1ccc(Oc2c(-c3ccc(OCCc4cccc(C(F)(F)F)c4)cc3O)n[nH]c2C(F)(F)F)cc1 system_name="RXF 393 renal" property=growth value=80.7
structure=Cc1ccc(-c2nc3c(c(-c4ccccc4)nn3-c3ccccc3)c(-c3ccc(O)cc3)c2C#N)cc1 system_name="RXF 393 renal" property=growth value=-10.4
structure=N#Cc1cccc(NC(=O)c2cc(-c3ccc(F)cc3F)ccc2O)c1 system_name="RXF 393 renal" property=growth value=3.07
structure=CCCCCCn1c(-c2ccc(C(=O)O/N=C(\N)c3ccc(OC)cc3)cc2)nc(-c2ccccc2)c1-c1ccccc1 system_name="RXF 393 renal" property=growth value=-59.6
structure=O=C(CSc1nc2ccccc2[nH]1)Nc1cccc(Cl)c1 system_name="RXF 393 renal" property=growth value=114
structure=O=c1c2cc(F)cc(Cl)c2sc2c(NCCCNCCO)nc3ccccc3c12 system_name="RXF 393 renal" property=growth value=80.3
